Value source: patent US20260132123A1

Quick list: log10 of EC50 per entry.
Target: 17β-HSD10 (Homo sapiens)
Construct: Histev (histidine tag with TEV site) (N, cleaved yes)
Test: 17β-HSD10 (ABAD) enzyme inhibition assay, NADH oxidation read at 340 nm (primary screen and dose response)
Conditions: recombinant 17βHSD10 enzyme assay
endpointLabel: log10 of EC50 (log10 of the value in nM)

{"columns": ["compound", "log10 of EC50"],
 "data": [
  ["CC(C)N(C(=O)c1ccccc1F)c1cccc(N(C)Cc2cnc[nH]2)c1", 2.80],
  ["O=C(c1sccc1Cl)N1CCC[C@H]1c1ccccc1-c1ccc2[nH]ncc2c1 (racemic)", 2.46],
  ["COc1ccc(-c2ccccc2C2CCCN2C(=O)c2sccc2C)cn1 (racemic)", 2.90],
  ["Cc1ccsc1C(=O)N1CCC[C@H]1c1ccccc1-c1ccc(C#N)cc1", 2.44],
  ["CC(C)CN(C(=O)c1ccccc1F)c1cccc(N(C)Cc2ccccn2)c1", 3.76],
  ["O=C(c1sccc1Cl)N1CCC[C@H]1c1ccccc1-c1ccc(F)c(O)c1 (racemic) [ESC1002775]", 1.69]
]}

----------
Molecular target: 17β-HSD10 (Homo sapiens, UniProt Q99714)
Construct: Histev (histidine tag with TEV site) (N, cleaved yes)
Experiment: 17β-HSD10 (ABAD) enzyme inhibition assay, NADH oxidation read at 340 nm (primary screen and dose response)
Settings: recombinant 17βHSD10 enzyme assay
pEC50: −log10 of the molar value.
Quick list: pEC50 per entry.

{"columns": ["molecule", "pEC50"],
 "data": [
  ["CC(C)CN(C(=O)c1ccccc1F)c1cccc(N(C)Cc2cc[nH]n2)n1 [ESC1002796]", "< 4.70"],
  ["CC(C)CN(C(=O)c1ccccc1F)c1cccc(N(C)CC(N)=O)c1 [ESC1002570]", "< 4.70"],
  ["COc1cccc(-c2ccccc2[C@H]2CCCN2C(=O)c2snnc2C)c1 [ESC1002429]", "< 4.70"]
]}

----------
Biological target: 17β-HSD10 (Homo sapiens, UniProt Q99714)
Construct: Histev (histidine tag with TEV site) (N, cleaved yes); made in house; host or cells: E. coli BL21-CodonPlus
Sequence (Q99714 1-261): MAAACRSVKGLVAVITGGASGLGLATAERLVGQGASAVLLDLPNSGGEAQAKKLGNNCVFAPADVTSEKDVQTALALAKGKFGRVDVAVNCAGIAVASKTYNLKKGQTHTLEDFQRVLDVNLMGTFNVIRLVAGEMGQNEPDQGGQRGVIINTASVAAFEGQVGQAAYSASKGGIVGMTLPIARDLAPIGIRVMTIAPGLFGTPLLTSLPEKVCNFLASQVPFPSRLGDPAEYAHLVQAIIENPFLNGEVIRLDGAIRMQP
Test: 17β-HSD10 (ABAD) enzyme inhibition assay, NADH oxidation read at 340 nm (primary screen and dose response)
Type: biochemical
Details: recombinant 17βHSD10 enzyme assay, curve fit
Quick list: Min. Fit per entry.

{"columns": ["compound", "Min. Fit"],
 "data": [
  ["Cc1ccsc1C(=O)N1CCC[C@@H]1c1ccccc1-c1ccc(F)cc1 [ESC1002423]", 9],
  ["COc1ccc(-c2ccccc2[C@@H]2CCCN2C(=O)c2sccc2C)cc1 (single isomer, unassigned) [ESC1002332]", 0],
  ["Cc1ncc(CN(C)c2cccc(N(CC(C)C)C(=O)c3ccccc3F)c2)[nH]1 [ESC1002204]", 0],
  ["CC(C)CN(C(=O)c1ccccc1F)c1cccc(N(C)Cc2ccccn2)c1 [ESC1002209]", 0],
  ["O=C(c1sccc1Cl)N1CCC[C@H]1c1ccccc1-c1cncnc1 (racemic) [ESC1002698]", 1],
  ["COc1cccc(-c2ccccc2[C@@H]2CCCN2C(=O)c2sccc2C)c1 (single isomer, unassigned) [ESC1002421]", 11],
  ["COc1ccc(-c2ccccc2C2CCCN2C(=O)c2sccc2C)cn1 (racemic) [ESC1002082]", 0],
  ["Cc1ccsc1C(=O)N1CCC[C@H]1c1ccccc1-c1ccc(N2CCOCC2)cc1 [ESC1002318]", "−1"],
  ["COc1ccc(-c2ccccc2[C@H]2CCCN2C(=O)c2ccccc2F)cn1 (stereo in doubt) [ESC1002119]", 0],
  ["COc1ccccc1-c1ccccc1[C@@H]1CCCN1C(=O)c1sccc1C [ESC1002325]", "−11"],
  ["Cc1ccsc1C(=O)N1CCC[C@@H]1c1ccccc1-c1c[nH]nc1C [ESC1002464]", "−5"],
  ["CC(C)CN(C(=O)c1ccccc1S(C)(=O)=O)c1cccc(N(C)Cc2c[nH]cn2)c1 [ESC1002622]", "−6"],
  ["COc1cccc(-c2ccccc2[C@@H]2CCCN2C(=O)c2[nH]ncc2Cl)c1 (racemic) [ESC1002626]", "−1"],
  ["COc1cccc(-c2ccccc2[C@@H]2CCCN2C(=O)c2sccc2C)c1OC [ESC1002326]", 4],
  ["Cc1n[nH]c(Cc2ccccc2)c1-c1ccccc1O [ESC1002170]", 0],
  ["C#CCN(C)c1cccc(N(CC(C)C)C(=O)c2ccccc2F)c1 [ESC1002636]", "−1"],
  ["CN(Cc1c[nH]cn1)c1cccc(N(CC2CCC2)C(=O)c2ccccc2F)c1 [ESC1002265]", 0],
  ["CC(C)CN(C(=O)C1CCCCC1)c1cccc(N(C)Cc2cnc[nH]2)c1 [ESC1002166]", 0],
  ["CC(C)CN(C(=O)c1ccccc1F)c1cccc(N(CCO)Cc2c[nH]cn2)c1 [ESC1002723]", 0],
  ["CCN(C(=O)c1ccccc1F)c1cccc(N(C)Cc2cnc[nH]2)c1 [ESC1002234]", "−3"],
  ["O=C(c1sccc1Cl)N1CCC[C@H]1c1ccccc1-c1cc(O)cc(F)c1 (racemic) [ESC1002776]", "−1"],
  ["Cc1ccccc1C(=O)N(CC(C)C)c1cccc(N(C)Cc2c[nH]cn2)c1 [ESC1002491]", 2],
  ["CC(C)CN(C(=O)CCc1ccccc1)c1cccc(N(C)Cc2cnc[nH]2)c1 [ESC1002168]", 0],
  ["CC(C)CN(C(=O)c1ccccc1Cl)c1cccc(N(C)Cc2c[nH]cn2)c1 [ESC1002457]", "−4"],
  ["Cc1ccsc1C(=O)N1CCC[C@H]1c1ccccc1-c1cccc(Cl)c1 (single isomer, unassigned) [ESC1002769]", "−3"],
  ["COc1cccc(-c2ccccc2[C@@H]2CCCN2C(=O)c2sccc2C)c1 [ESC1002338]", 0],
  ["CN(Cc1c[nH]cn1)c1cccc(N(CC2CC2)C(=O)c2ccccc2F)c1 [ESC1002342]", "−1"],
  ["CC(C)CN(C(=O)c1ccccc1F)c1cccc(NCc2c[nH]cn2)c1 [ESC1002631]", "−6"]
]}
